Value source: paper PMC12136788

Each item that follows carries a reported binding signal.
subject-of-test: T1, UNK ZnF1-3 (human, UniProt Q9C0B0 31-174)
T1 sequence: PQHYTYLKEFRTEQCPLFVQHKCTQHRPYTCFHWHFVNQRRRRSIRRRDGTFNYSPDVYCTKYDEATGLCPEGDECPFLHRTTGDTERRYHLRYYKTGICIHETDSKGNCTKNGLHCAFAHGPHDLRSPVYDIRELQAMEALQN
run-description: nsRBNS (natural sequence RNA bind-n-seq); RBNS binding buffer (assumed for nsRBNS): 25 mM Tris pH 7.5, 150 mM KCl, 3 mM MgCl2, 0.01% Triton X-100, 500 ug/ml BSA, 20 U/ml SUPERase-In, 4 C; UNK is unkempt and MSI1 is Musashi-1; names of the RNAs are library labels; protein concentration not given here; high values mean tight binding
Whole data set: some 24,000 sequences, median “enrichment r” near 0.99, cut for the highest 2% near 3.7. The entries come from a sample that favours the highest values as a whole.

binder	binding signal [enrichment R]
chr2:153237265:153237266:-_ENSMUSG00000061411_ENSMUST00000109784|mus_mus|mus_mus_mus_hu_False|18_28 (ssRNA) RNA: GGGAGUUCUACAGUCCGACGAUCAAAAAAAAAAAAAAAAAAGUGUCCUUGUGCCCAAAGUCUCAGGUGCUUGGAGUGUGGCUAGAAACAGCUCUUUUGGAUCCCACCUCUUUCAGAAAACAGUGUAACCAACUGGUGAGGCAGCAACAGAGGAUUGAGCAUCA	3.55
chr5:71490711:71490712:+_ENSG00000131711_ENST00000296755|hu_hu|motif|central (ssRNA) RNA: GGGAGUUCUACAGUCCGACGAUCCACAGGAGUGGGCACCUGGCCAGUGAGAUCCUUUUGGGUGGCCAGUGGCUGCUUCAGAAAGUCGGGAUGUUUGAGCUUUUCCAACCCUUCCAGGAUGUUGUACUGGGUGCUGUUCCCAGGCAACAGAGGAUUGAGCAUCA	1.1
